System: Staphylococcus aureus
assay.text: Antimicrobial activity against Staphylococcus aureus ATCC6538 assessed as reduction in bacterial growth incubated for 24 hrs by two-fold broth dilution method
Type: functional
Here, each record is paired with measured MIC data.

// below: answered molecules
> print(dat)
                               given.smiles  quantity    observed
1  O=C(CCC(F)(F)F)N(Cc1cc2ccccc2s1)c1cc(-c2cncnc2)ccc1O       MIC  > 16 µg/mL
2  O=C(CCC(F)(F)F)N(Cc1cc2ccccc2s1)c1cccc(-c2ccccc2)c1O       MIC  > 16 µg/mL
3  O=C(CCC(F)(F)F)N(Cc1cc2ccccc2s1)c1cc(-c2ccccc2C(F)(F)F)ccc1O       MIC  > 16 µg/mL

Input: Requested field: MIC. Item: `CCCCCC(=O)N(Cc1cc2ccccc2s1)c1ccc2ccccc2c1O`
Output: > 250 µg/mL

Input: Proceed to `C=CCCC(=O)N(Cc1cc2ccccc2s1)c1ccc2ccccc2c1O`
Output: > 250 µg/mL

Input: `O=C(CCC(F)(F)F)N(Cc1cc2ccccc2s1)c1cc(-c2ccncc2)ccc1O` , same question.
Output: > 16 µg/mL

Input: Consider next the molecule `CCCC(=O)N(Cc1cc2ccccc2s1)c1ccc2ccccc2c1O` in the same way.
Output: > 250 µg/mL

Input: Further, for `COc1cc(-c2ccccc2)ccc1N(Cc1cc2ccccc2s1)C(=O)CCC(F)(F)F` ?
Output: > 16 µg/mL
